assay: in vitro; details: human
With a cut-off of 20 µM, any CC50 strictly below it is called Fulfilled; any CC50 meeting it or above is called Not fulfilled.

Look over these answered cases.
N#Cc1cc2c(Oc3ccc(Cl)cc3OCCn3ccc(=O)[nH]c3=O)cccn2c1 [10m] = Not fulfilled
Cc1cc2c(Oc3ccccc3OCCn3ccc(=O)[nH]c3=O)cccc2[nH]1 = Fulfilled
N#Cc1cc2c(Oc3cc(F)ccc3OCCn3ccc(=O)[nH]c3=O)cccn2c1 [10j] = Not fulfilled
N#Cc1cc2c(Oc3ccccc3OCCn3ccc(=O)[nH]c3=O)cc(Cl)cc2o1 [12c] = Not fulfilled
N#Cc1cc2c(Oc3cc(F)c(F)cc3OCCn3ccc(=O)[nH]c3=O)cccn2c1 [10k] = Fulfilled
N#Cc1ccc2c(Oc3ccccc3OCCn3ccc(=O)[nH]c3=O)cccc2c1 [14e] = Not fulfilled
N#Cc1cc2c(Oc3cc(F)c(F)cc3OCCn3ccc(=O)[nH]c3=O)cc(F)cn2c1 [10l] = Not fulfilled
N#Cc1cc2c(Oc3ccccc3OCCn3ccc(=O)[nH]c3=O)cccc2o1 [12a] = Not fulfilled

Problem: Is the reported CC50 for `N#Cc1cc2c(Oc3ccccc3OCCn3ccc(=O)[nH]c3=O)cccc2[nH]1` strictly below 20 µM?
Solution: Not fulfilled

Problem: Is the reported CC50 for N#Cc1cc2c(Oc3ccc(Cl)cc3OCCn3ccc(=O)[nH]c3=O)cccc2o1 [12h] strictly below 20 µM?
Solution: Fulfilled

Problem: Is the reported CC50 for O=c1ccn(CCOc2cc(Cl)ccc2Oc2cccc3occc23)c(=O)[nH]1 [12f] strictly below 20 µM?
Solution: Fulfilled

Problem: Is the reported CC50 for N#Cc1cc2c(Oc3ccc(F)cc3OCCn3ccc(=O)[nH]c3=O)cccc2o1 [12d] strictly below 20 µM?
Solution: Not fulfilled

Problem: Is the reported CC50 for N#Cc1ccc2c(Oc3ccc(F)cc3OCCn3ccc(=O)[nH]c3=O)cccc2c1 [14i] strictly below 20 µM?
Solution: Not fulfilled

Problem: Is the reported CC50 for Cc1cc2c(Oc3ccccc3OCCn3ccc(=O)[nH]c3=O)cccn2c1 [10a] strictly below 20 µM?
Solution: Fulfilled
